system: c-Src; test: phosphorylation enrichment, bacterial display (enrichment ratio); higher = better substrate or ligand; peptides without Tyr show the background;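 further: 11-residue human phosphosite peptides and single-mutation variants displayed on the E. coli surface, counted by deep sequencing, each peptide's frequency after selection divided by its frequency in the unselected input library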;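 further: frequency after pTyr selection over input frequency; kinase dosed for 20-30% of maximal phosphorylation in three min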
Use TRUE when the recorded phosphorylation enrichment is no lower than 0.6; use FALSE when it is lower.

Request: Assess whether reported phosphorylation enrichment for RYLTRYIYNRE [HLA-DQB1_Y62_V59L] sits at 0.6 or higher.
Result: TRUE

Request: Assess whether reported phosphorylation enrichment for ANAYIYVVQLP [L1CAM_Y420] sits at 0.6 or higher.
Result: TRUE

Request: Assess whether reported phosphorylation enrichment for KNKKDYYDMYE [SLC26A3_Y526] sits at 0.6 or higher.
Result: FALSE

Request: Assess whether reported phosphorylation enrichment for RSHLSYDVTPE [IQGAP3_Y1098_P1097S] sits at 0.6 or higher.
Result: FALSE

Request: Assess whether reported phosphorylation enrichment for LEEFQYIGESQ [MSH2_Y856] sits at 0.6 or higher.
Result: TRUE

Request: Assess whether reported phosphorylation enrichment for PVGDVYKKKGL [NMNAT1_Y55_A54V] sits at 0.6 or higher.
Result: FALSE

Request: Assess whether reported phosphorylation enrichment for VDDEIYFFRKP [PBRM1_Y1289_YF] sits at 0.6 or higher.
Result: TRUE

Request: Assess whether reported phosphorylation enrichment for PLGPLYASSNP [INSR_Y992] sits at 0.6 or higher.
Result: TRUE

Request: Assess whether reported phosphorylation enrichment for KHTLSYVDVGT [SDHA_Y629] sits at 0.6 or higher.
Result: FALSE

Request: Assess whether reported phosphorylation enrichment for LITTLYIDFLG [KCNQ1_Y267_G269D] sits at 0.6 or higher.
Result: TRUE

Request: Assess whether reported phosphorylation enrichment for QNTGDYFDLFG [PTPN11_Y62_YF] sits at 0.6 or higher.
Result: TRUE

Request: Assess whether reported phosphorylation enrichment for KRISCYEASFQ [PFKFB3_Y194_YF] sits at 0.6 or higher.
Result: FALSE

Request: Assess whether reported phosphorylation enrichment for SVTCTYCPALN [TP53_Y126_S127C] sits at 0.6 or higher.
Result: FALSE

Request: Assess whether reported phosphorylation enrichment for LFCLHYFHRTF [SRD5A2_Y91_V89L] sits at 0.6 or higher.
Result: TRUE

Request: Assess whether reported phosphorylation enrichment for LQEQNYLAVDS [FAM114A1_Y115] sits at 0.6 or higher.
Result: TRUE

Request: Assess whether reported phosphorylation enrichment for RNLLIYTEFGK [HGD_Y166_G161R] sits at 0.6 or higher.
Result: TRUE

Request: Assess whether reported phosphorylation enrichment for ILTYKYLQIPM [KIT_Y547_K550I] sits at 0.6 or higher.
Result: FALSE

Request: Assess whether reported phosphorylation enrichment for FIRKDYEACKA [BBS4_Y48_YF] sits at 0.6 or higher.
Result: FALSE

Request: Assess whether reported phosphorylation enrichment for FFRKFCNKSED [RYR1_Y4864_Y4864C] sits at 0.6 or higher.
Result: FALSE

Request: Assess whether reported phosphorylation enrichment for RSFSPYDFQPC [TNS1_Y796_YF] sits at 0.6 or higher.
Result: TRUE

Request: Assess whether reported phosphorylation enrichment for SLIEHYEPSET [PLCD1_Y258_R257H] sits at 0.6 or higher.
Result: FALSE

Request: Assess whether reported phosphorylation enrichment for YGTAQYCCRMG [LRRK2_Y2023_I2020T] sits at 0.6 or higher.
Result: TRUE

Request: Assess whether reported phosphorylation enrichment for PVKAAYQKVVA [HBB_Y131_Q128K] sits at 0.6 or higher.
Result: TRUE

Request: Assess whether reported phosphorylation enrichment for ITNLLYHVVSW [GBA_Y412_G416S] sits at 0.6 or higher.
Result: TRUE

Request: Assess whether reported phosphorylation enrichment for PDMHSYVVRFN [GRIN2D_Y732_M733V_YF] sits at 0.6 or higher.
Result: FALSE

Request: Assess whether reported phosphorylation enrichment for FEPDAYDDLDQ [ELP5_Y302_YF] sits at 0.6 or higher.
Result: FALSE

Request: Assess whether reported phosphorylation enrichment for PQGVGYPPQPQ [EP300_Y2219_Q2223P] sits at 0.6 or higher.
Result: TRUE

Request: Assess whether reported phosphorylation enrichment for HSKGIYFVQLE [MGAT4B_Y262_Q257H_YF] sits at 0.6 or higher.
Result: TRUE

Request: Assess whether reported phosphorylation enrichment for IIGNGYYFRVF [MYBPC3_Y1135] sits at 0.6 or higher.
Result: FALSE

Request: Assess whether reported phosphorylation enrichment for YRIDHYLGKEM [G6PD_Y202] sits at 0.6 or higher.
Result: FALSE

Request: Assess whether reported phosphorylation enrichment for PLRAYYLIARV [HLCS_Y635_D634Y] sits at 0.6 or higher.
Result: FALSE

Request: Assess whether reported phosphorylation enrichment for NVADHYGVFKP [ATP6V0D2_Y271_YF] sits at 0.6 or higher.
Result: TRUE

Request: Assess whether reported phosphorylation enrichment for GNLLIYTEFGK [HGD_Y166] sits at 0.6 or higher.
Result: TRUE

Request: Assess whether reported phosphorylation enrichment for SRLDSYVRSLP [TRAPPC1_Y133] sits at 0.6 or higher.
Result: FALSE

Request: Assess whether reported phosphorylation enrichment for DRLASYLDKAR [KRT14_Y129_V133A] sits at 0.6 or higher.
Result: FALSE

Request: Assess whether reported phosphorylation enrichment for KLKNAYEESLE [MYH7_Y1488] sits at 0.6 or higher.
Result: FALSE

Request: Assess whether reported phosphorylation enrichment for ISITPYPAILH [IFT80_Y588] sits at 0.6 or higher.
Result: FALSE

Request: Assess whether reported phosphorylation enrichment for DKATEYIQYMR [MAX_Y70] sits at 0.6 or higher.
Result: FALSE

Request: Assess whether reported phosphorylation enrichment for HVIKFYGACSQ [RET_Y791_L790F] sits at 0.6 or higher.
Result: FALSE

Request: Assess whether reported phosphorylation enrichment for DKGTLYIAEQI [PLBD1_Y375_V377A] sits at 0.6 or higher.
Result: FALSE

Request: Assess whether reported phosphorylation enrichment for LGPDGYSTVDR [ARVCF_Y901] sits at 0.6 or higher.
Result: FALSE

Request: Assess whether reported phosphorylation enrichment for LLDGEYFTLQI [TP53_Y327_P322L] sits at 0.6 or higher.
Result: TRUE

Request: Assess whether reported phosphorylation enrichment for REVKAYGAGLL [TH_Y419_G414R] sits at 0.6 or higher.
Result: FALSE

Request: Assess whether reported phosphorylation enrichment for HFEFKYVINAI [MAOA_Y268_C266F_YF] sits at 0.6 or higher.
Result: FALSE

Request: Assess whether reported phosphorylation enrichment for LKGQVYILGGE [ASS1_Y359_R363G] sits at 0.6 or higher.
Result: TRUE

Request: Assess whether reported phosphorylation enrichment for AEPTGYSAELS [EZR_Y499] sits at 0.6 or higher.
Result: FALSE

Request: Assess whether reported phosphorylation enrichment for SSAAGYACLAF [MVD_Y131_YF] sits at 0.6 or higher.
Result: FALSE

Request: Assess whether reported phosphorylation enrichment for GEEIKDMLWLS [OTC_Y55_Y55D] sits at 0.6 or higher.
Result: FALSE

Request: Assess whether reported phosphorylation enrichment for TESALYGCTVL [KIAA1804_Y724] sits at 0.6 or higher.
Result: TRUE

Request: Assess whether reported phosphorylation enrichment for RVNSAYQDKVS [ACAN_Y100] sits at 0.6 or higher.
Result: FALSE

Request: Assess whether reported phosphorylation enrichment for DTKPVYQNLRQ [BOD1_Y82_A81V] sits at 0.6 or higher.
Result: TRUE

Request: Assess whether reported phosphorylation enrichment for KEAALYPHLPP [SQSTM1_Y383] sits at 0.6 or higher.
Result: FALSE

Request: Assess whether reported phosphorylation enrichment for EPVSDYINASI [PTPN11_Y304_N308S] sits at 0.6 or higher.
Result: FALSE

Request: Assess whether reported phosphorylation enrichment for RFLRGYRQDAF [HLA-A_Y137_YF] sits at 0.6 or higher.
Result: FALSE

Request: Assess whether reported phosphorylation enrichment for MWGSDYVHLSR [MAP3K4_Y582_Q584H] sits at 0.6 or higher.
Result: FALSE
